These entries and their values trace back to PubChem BioAssay (NCI).

System: OVCAR-5 ovarian
ASSAY OVERVIEW: NCI tumour cell line growth inhibition, 48 h
RECORDED ENDPOINT: TGI (µM)
Report the value in µM with no unit label.

Previously resolved entries follow.
COc1ccc(-c2[nH]c3ccccc3c2-c2ccc(OC)cc2)cc1 = 33.9
CCN(CC)c1ccc2cc(C(=O)Nc3ccc4[nH]c(C(=O)N5C[C@@H](CCl)c6c5cc(OC(=O)Nc5ccccc5)c5[nH]cc(C)c65)cc4c3)oc2c1 = 633
COc1ccc2cc1Oc1ccc(cc1)C[C@H]1c3c(cc4c(c3Oc3cc5c(cc3OC)CCN(C)[C@@H]5C2)OCO4)CCN1C = 13.5

Now for another entry.
Fill in the recorded TGI for this compound, with OVCAR-5 ovarian as test system: "CCCCCCCOc1ccc(/C=C\c2cc[n+](CCCCCCCC[n+]3ccc(/C=C\c4ccc(OCCCCCCC)cc4)cc3)cc2)cc1"
46.5
